Measured normalised response, listed per entry for reference.
tested on: MDA-MB-453; assay: normalised response (% of control), CellTiter-Glo; higher = more viable cells (100 = DMSO, 0 = benzethonium chloride kill control); details: incubation time: 72 h
// note: answer is a bare numeric in %

Worked cases, normalised response given:
Cc1ccc([N+](=O)[O-])cc1S(=O)(=O)N(C)/N=C/c1cnc2ccc(Br)cn12 [PIK-75] (1000 nM) :: 4.17
Oc1ncnc2[nH]ncc12 [Allopurinol] (10 nM) :: 109
O=C1CN2Cc3c(ccc(Cl)c3Cl)N=C2N1 [Anagrelide] (1 nM) :: 109

Shift focus to the following entry.
// CC(=O)O[C@@]12CO[C@@H]1C[C@H](O)[C@@]1(C)C(=O)[C@H](O)C3=C(C)[C@@H](OC(=O)[C@H](O)[C@@H](NC(=O)OC(C)(C)C)c4ccccc4)C[C@@](O)([C@@H](OC(=O)c4ccccc4)[C@H]21)C3(C)C [Docetaxel] (0.1 nM) : normalised response value = 99.7
